# Tested on: Rattus norvegicus
# measurement_notes: Antiinflammatory activity in po dosed Wistar albino rat acute inflammatory model assessed as inhibition of formalin-induced paw edema administered 1 hr before formalin challenge measured after 3 hrs by plethysmometer
# Type: functional
assay_metric: ED50 (mg/kg)
Kindly provide the numeric value in mg/kg only, without the unit symbol.

Known results for molecules:
structure_smiles_string: O=C1NC(=O)/C(=C/c2cn(-c3ccccc3)nc2-c2ccccc2)S1
target_entity: Rattus norvegicus
ED50 / mg/kg: 21.3
--
structure_smiles_string: Cc1ccc(-c2cc(C(F)(F)F)nn2-c2ccc(S(N)(=O)=O)cc2)cc1
target_entity: Rattus norvegicus
ED50 / mg/kg: 14.3
--
structure_smiles_string: O=C1NC(=O)/C(=C/c2cn(-c3ccc([N+](=O)[O-])cc3)nc2-c2ccc(Cl)cc2)S1
target_entity: Rattus norvegicus
ED50 / mg/kg: 15.2
--
structure_smiles_string: C=CCN1C(=O)S/C(=C\c2cn(-c3ccccc3)nc2-c2ccc(Cl)cc2)C1=O
target_entity: Rattus norvegicus
ED50 / mg/kg: 15.4

Now consider the entry below.
Exercise: Fill: ED50 (Rattus norvegicus) for this molecule O=C1NC(=O)/C(=C/c2cn(-c3ccccc3)nc2-c2ccc(Cl)cc2)S1
Key: 13
